Catalogue of IC50 values
Target: PE-labeled human PD-L1-Ig binding to Jurkat cell line over-expressing human PD-1 (Jurkat-PD-1) (Homo sapiens, UniProt Q15116)
Construct: expressed in transfected cells; host or cells: Jurkat
Sequence (Q15116 25-288): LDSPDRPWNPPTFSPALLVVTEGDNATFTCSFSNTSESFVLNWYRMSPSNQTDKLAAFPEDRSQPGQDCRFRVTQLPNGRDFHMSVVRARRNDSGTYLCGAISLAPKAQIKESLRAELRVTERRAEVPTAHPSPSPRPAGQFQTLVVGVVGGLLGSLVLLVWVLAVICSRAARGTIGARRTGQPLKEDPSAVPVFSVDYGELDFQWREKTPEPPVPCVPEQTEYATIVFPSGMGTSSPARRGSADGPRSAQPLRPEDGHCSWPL
Assay: Jurkat-PD-1 Cell Binding High-Content Screening Assay (CBA): Method 1
Details: Jurkat-hPD-1 cells, PE-labeled PD-L1-Ig 20 nM final; read-out: Jurkat HPDL1 PD1 IC50 (uM) (Method 1)
Bridge positions count the residues as written; N and C are the ends. Square brackets hold non-standard residues; d marks the D form. Peptide text beside a SMILES is read from it. ξ: configuration not given here. Bip = N[C@@H](Cc1ccc(-c2ccccc2)cc1)C(=O)O; Ile(3ξ) = CCC(C)[C@H](N)C(=O)O; NMeA = CN[C@@H](C)C(=O)O; Dab = NCC[C@H](N)C(=O)O

Compound	IC50 (µM)
CCC(C)[C@@H]1NC(=O)[C@H](Cc2ccc(-c3ccccc3)cc2)NC(=O)[C@H](C(C)C)NC(=O)[C@H](Cc2c[nH]c3ccccc23)NC(=O)[C@H](CC(=O)O)NC(=O)[C@H](Cc2ccc(O)cc2)NC(=O)[C@H](CC(N)=O)NC(=O)CSC[C@@H](C(=O)N[C@@H](C)C(N)=O)NC(=O)[C@H](CO)NC(=O)[C@H](C(C)C)NC(=O)[C@H](CC(C)C)NC(=O)[C@H](CCN)NC(=O)[C@@H](CC(C)C)NC(=O)[C@H](C)N(C)C1=O (stereo partly drawn) [Compound 2070] ({CH2CO}-NYDWV[Bip][Ile(3ξ)][NMeA][dL][Dab]LVSCA-NH2; thioether N-14)	0.05
CC(C)C[C@@H]1NC(=O)[C@H](CC(N)=O)NC(=O)[C@@H](CC(C)C)NC(=O)[C@H](C)N(C)C(=O)[C@H](CCCNC(=N)N)NC(=O)[C@H](Cc2ccc(-c3ccccc3)cc2)NC(=O)[C@H](C(C)C)NC(=O)[C@H](Cc2c[nH]c3ccccc23)NC(=O)[C@H](CC(=O)O)NC(=O)[C@H](Cc2ccc(O)cc2)NC(=O)[C@H](Cc2ccccc2)NC(=O)CSC[C@@H](C(=O)N[C@@H](C)C(N)=O)NC(=O)[C@H](CO)NC(=O)[C@H](C(C)C)NC1=O [Compound 1742] ({CH2CO}-FYDWV[Bip]R[NMeA][dL]NLVSCA-NH2; thioether N-14)	0.02

FYI, the data here is from patent US20240409585A1.
